These entries and their values trace back to ChEMBL document CHEMBL4828765.

Target: Casein kinase I isoform epsilon (Homo sapiens)
Experiment: Binding affinity to CSNK1E (unknown origin) assessed as change in melting temperature by SYPRO orange dye based DSF assay
metric: deltaTm (K)

Q) Please indicate recorded deltaTm of Cc1cc(Br)c(CNc2ncc(C(=O)NCCCN3CCOC3=O)c(NC3CCCCC3)n2)cc1Br measured with Casein kinase I isoform epsilon (Homo sapiens).
A) 3.8

(a) O=C(NCCCN1CCCC1=O)c1cnc(NCc2cccc(Br)c2)nc1NC1CCCC1
(b) COc1ccc(OC)c(CNc2ncc(C(=O)NCCCN3CCCC3=O)c(NC3CCCC3)n2)c1
(c) O=C(NCCCN1CCCC1=O)c1cnc(NCc2ccccc2)nc1NC1CCCC1
Q) Arrange the 3 compounds by rising deltaTm, starting with the smallest. Labels, ranked as asked.
A) b, c, a
(b: 0.4 K, c: 4.3 K, a: 6.5 K)

###

Species on record: Homo sapiens
Experiment: Binding affinity to MERTK-AXL mutant (unknown origin) expressed in Escherichia coli Rosetta cells assessed as change in melting temperature by SYPRO orange dye based DSF assay
metric: deltaTm (K)
Write it as a number; the unit K goes unstated.

Use the examples below as a reference point.
Q) For the molecule O=C(NCCCN1CCCC1=O)c1cnc(NCc2cc(Cl)ccc2Cl)nc1NC1CC1 , report deltaTm.
A) -0.2

Q) For the molecule O=C(NCCCN1CCCC1=O)c1cnc(NCc2cccc(Br)c2)nc1NC1CCCC1 , report deltaTm.
A) 0.3

Q) For the molecule O=C(NCCCN1CCOC1=O)c1cnc(NCc2cc(Br)ccc2Br)nc1NC1CCCC1 , report deltaTm.
A) 0.2

Q) For the molecule O=C(NCCCN1CCCC1=O)c1cnc(NCc2cc(F)ccc2F)nc1NC1CCCC1 , report deltaTm.
A) 0.3

Q) For the molecule COc1ccc(OC)c(CNc2ncc(C(=O)NCCCN3CCCC3=O)c(NC3CCCC3)n2)c1 , report deltaTm.
A) -0.2

Q) For the molecule O=C(NCCCN1CCCC1=O)c1cnc(NCc2ccccc2Br)nc1NC1CCCC1 , report deltaTm.
A) -0.1

Q) For the molecule Cc1ccc(CNc2ncc(C(=O)NCCCN3CCOC3=O)c(NC3CCCCC3)n2)c(Br)c1 , report deltaTm.
A) -0.1

Let's switch to this molecule now.
Q) For the molecule O=C(NCCCN1CCCC1=O)c1cnc(NCc2cc(Cl)ccc2Cl)nc1NC1CCCC1 , report deltaTm.
A) -0.2

###

Target: Tyrosine-protein kinase receptor TYRO3 (Homo sapiens)
Sequence (Q06418 whole entry, the tested form may be a part): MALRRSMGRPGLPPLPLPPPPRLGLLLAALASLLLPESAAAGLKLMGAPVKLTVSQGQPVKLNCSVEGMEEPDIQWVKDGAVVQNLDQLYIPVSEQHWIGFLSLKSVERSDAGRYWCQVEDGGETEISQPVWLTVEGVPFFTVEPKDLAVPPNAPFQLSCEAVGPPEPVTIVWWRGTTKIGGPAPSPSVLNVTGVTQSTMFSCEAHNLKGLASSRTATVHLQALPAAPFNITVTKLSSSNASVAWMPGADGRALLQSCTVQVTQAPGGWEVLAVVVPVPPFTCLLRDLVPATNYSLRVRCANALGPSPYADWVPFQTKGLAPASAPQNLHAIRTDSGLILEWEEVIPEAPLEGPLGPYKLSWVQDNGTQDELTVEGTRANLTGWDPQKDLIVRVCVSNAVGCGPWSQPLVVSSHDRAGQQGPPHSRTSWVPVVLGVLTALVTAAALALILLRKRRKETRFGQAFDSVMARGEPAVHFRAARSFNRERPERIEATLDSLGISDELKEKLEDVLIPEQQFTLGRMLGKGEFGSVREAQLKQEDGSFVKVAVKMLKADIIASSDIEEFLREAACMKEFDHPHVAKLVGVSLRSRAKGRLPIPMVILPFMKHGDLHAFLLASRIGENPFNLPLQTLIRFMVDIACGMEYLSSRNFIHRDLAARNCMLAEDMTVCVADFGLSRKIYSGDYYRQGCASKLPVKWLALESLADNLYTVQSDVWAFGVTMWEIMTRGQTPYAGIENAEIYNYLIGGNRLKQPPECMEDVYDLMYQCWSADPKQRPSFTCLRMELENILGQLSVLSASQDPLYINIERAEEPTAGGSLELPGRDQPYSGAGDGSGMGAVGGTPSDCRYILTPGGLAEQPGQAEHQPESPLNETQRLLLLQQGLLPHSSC
Assay: Inhibition of tracer K5 binding to NanoLuc-fused TYRO3 (unknown origin) expressed in HEK293T cells measured after 2 hrs by NanoBRET assay
Assay type: cell-based
metric: IC50 (µM)

(1) Cc1cc(Br)c(CNc2ncc(C(=O)NCCCN3CCOC3=O)c(NC3CCCCC3)n2)cc1Br
(2) O=C(NCCCN1CCOC1=O)c1cnc(NCc2cc(Cl)ccc2Cl)nc1NC1CCCC1
Q) From the items above, decide which of 1 and 2 has the lower IC50 reading. Write the label of whichever entry you select.
A) 2

###

Target: Tyrosine-protein kinase Mer (Homo sapiens)
Sequence (Q12866 whole entry): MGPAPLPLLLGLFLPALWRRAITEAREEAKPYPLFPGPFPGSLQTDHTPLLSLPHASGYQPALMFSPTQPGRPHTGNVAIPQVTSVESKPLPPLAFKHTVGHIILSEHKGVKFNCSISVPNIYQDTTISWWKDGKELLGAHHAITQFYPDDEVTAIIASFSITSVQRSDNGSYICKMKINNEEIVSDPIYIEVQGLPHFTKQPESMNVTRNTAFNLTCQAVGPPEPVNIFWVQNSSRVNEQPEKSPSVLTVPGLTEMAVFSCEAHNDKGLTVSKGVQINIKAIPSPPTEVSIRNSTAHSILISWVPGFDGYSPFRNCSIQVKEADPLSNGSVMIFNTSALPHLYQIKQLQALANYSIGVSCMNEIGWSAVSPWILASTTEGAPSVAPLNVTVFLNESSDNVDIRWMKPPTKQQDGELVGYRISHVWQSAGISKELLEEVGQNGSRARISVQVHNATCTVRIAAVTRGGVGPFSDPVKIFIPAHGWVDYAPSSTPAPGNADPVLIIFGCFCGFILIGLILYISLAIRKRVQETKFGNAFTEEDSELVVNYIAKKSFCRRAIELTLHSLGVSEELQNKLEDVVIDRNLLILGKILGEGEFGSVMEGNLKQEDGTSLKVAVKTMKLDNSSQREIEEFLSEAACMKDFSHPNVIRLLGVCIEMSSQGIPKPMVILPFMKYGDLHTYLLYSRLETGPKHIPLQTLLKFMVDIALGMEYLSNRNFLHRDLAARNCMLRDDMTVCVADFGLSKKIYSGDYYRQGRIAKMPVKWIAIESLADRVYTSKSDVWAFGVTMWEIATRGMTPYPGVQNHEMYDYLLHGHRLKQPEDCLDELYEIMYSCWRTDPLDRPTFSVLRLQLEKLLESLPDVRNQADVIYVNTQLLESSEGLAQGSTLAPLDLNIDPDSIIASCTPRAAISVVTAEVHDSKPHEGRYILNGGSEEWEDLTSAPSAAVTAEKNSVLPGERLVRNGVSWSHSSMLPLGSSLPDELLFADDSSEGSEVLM
Assay: Inhibition of tracer K5 binding to NanoLuc-fused MERTK (unknown origin) expressed in HEK293T cells measured after 2 hrs by NanoBRET assay
Assay type: cell-based
pIC50: −log10 of the molar value.
metric: pIC50

Use the examples below as a reference point.
Q) For the molecule O=C(NCCCN1CCCC1=O)c1cnc(NCc2cc(F)ccc2F)nc1NC1CCCC1 , report pIC50.
A) 5.35

Q) For the molecule O=C(NCCCN1CCOC1=O)c1cnc(NCc2cc(Cl)ccc2Cl)nc1NC1CCCC1 , report pIC50.
A) < 5.00

Q) For the molecule CCN(Cc1ccc(Cl)cc1)c1ncc(C(=O)NCCCN2CCCC2=O)c(NC2CCCC2)n1 , report pIC50.
A) < 5.00

Others:
Q) For the molecule Cc1cc(Br)c(CNc2ncc(C(=O)NCCCN3CCOC3=O)c(NC3CCCCC3)n2)cc1Br , report pIC50.
A) < 5.00

Q) For the molecule O=C(NCCCN1CCCC1=O)c1cnc(NCc2ccc(Cl)cc2Cl)nc1NC1CCCC1 , report pIC50.
A) < 5.00

###

Target: Mitogen-activated protein kinase kinase kinase 2 (Homo sapiens)
Sequence (Q9Y2U5 whole entry): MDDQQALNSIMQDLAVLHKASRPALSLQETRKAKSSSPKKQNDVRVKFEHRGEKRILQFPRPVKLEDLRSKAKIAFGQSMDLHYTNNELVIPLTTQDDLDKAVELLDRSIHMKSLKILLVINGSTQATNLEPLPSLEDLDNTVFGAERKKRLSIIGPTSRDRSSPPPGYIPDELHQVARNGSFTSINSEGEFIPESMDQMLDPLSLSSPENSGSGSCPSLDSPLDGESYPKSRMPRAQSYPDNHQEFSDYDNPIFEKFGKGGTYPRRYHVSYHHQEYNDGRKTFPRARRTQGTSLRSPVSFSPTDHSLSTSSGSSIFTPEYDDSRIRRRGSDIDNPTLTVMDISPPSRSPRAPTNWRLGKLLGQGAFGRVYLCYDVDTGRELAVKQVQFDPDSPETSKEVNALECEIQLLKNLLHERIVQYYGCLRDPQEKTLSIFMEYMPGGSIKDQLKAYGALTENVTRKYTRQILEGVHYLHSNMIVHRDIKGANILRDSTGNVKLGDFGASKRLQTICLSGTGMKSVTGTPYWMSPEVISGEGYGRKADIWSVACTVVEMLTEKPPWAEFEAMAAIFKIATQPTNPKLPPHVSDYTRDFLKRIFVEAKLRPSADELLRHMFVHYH
Assay: Binding affinity to human MAP3K2 by KINOMEscan scanMAX assay
metric: pKd
In plain terms, pKd is the concentration in mol/L turned into minus its base-10 logarithm.

Q) For the molecule O=C(NCCCN1CCOC1=O)c1cnc(NCc2cc(Cl)ccc2Cl)nc1NC1CCCC1 , report pKd.
A) 6.16

###

Target: Casein kinase I isoform epsilon (Homo sapiens, UniProt P49674)
Sequence (P49674 whole entry, looked up, canonical isoform): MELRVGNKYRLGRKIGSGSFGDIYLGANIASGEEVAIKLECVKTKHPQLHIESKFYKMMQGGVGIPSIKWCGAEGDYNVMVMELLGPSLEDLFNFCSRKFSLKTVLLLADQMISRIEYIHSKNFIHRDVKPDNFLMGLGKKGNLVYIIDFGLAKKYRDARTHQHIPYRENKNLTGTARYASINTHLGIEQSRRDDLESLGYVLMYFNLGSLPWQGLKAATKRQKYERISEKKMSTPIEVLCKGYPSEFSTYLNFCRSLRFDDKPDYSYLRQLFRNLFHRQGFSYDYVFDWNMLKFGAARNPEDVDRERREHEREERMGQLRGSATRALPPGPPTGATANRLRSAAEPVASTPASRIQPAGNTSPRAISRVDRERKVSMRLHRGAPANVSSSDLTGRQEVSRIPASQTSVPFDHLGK
Assay: Binding affinity to CSNK1E (unknown origin) assessed as change in melting temperature by SYPRO orange dye based DSF assay
metric: deltaTm (K)

Use the examples below as a reference point.
Q) Please indicate recorded deltaTm of O=C(NCCCN1CCOC1=O)c1cnc(NCc2cc(Br)ccc2Br)nc1NC1CCCC1 measured with Casein kinase I isoform epsilon (Homo sapiens, UniProt P49674).
A) 3.6

Q) Please indicate recorded deltaTm of O=C(NCCCN1CCCC1=O)c1cnc(NCc2cc(F)ccc2F)nc1NC1CCCC1 measured with Casein kinase I isoform epsilon (Homo sapiens, UniProt P49674).
A) 5.9

Q) Please indicate recorded deltaTm of O=C(NCCCN1CCCC1=O)c1cnc(NCc2cc(Cl)ccc2Cl)nc1Nc1ccccc1 measured with Casein kinase I isoform epsilon (Homo sapiens, UniProt P49674).
A) 3.6

(A) O=C(NCCCN1CCCC1=O)c1cnc(NCc2ccccc2Br)nc1NC1CCCC1
(B) Cc1ccc(CNc2ncc(C(=O)NCCCN3CCOC3=O)c(NC3CCCCC3)n2)c(Br)c1
Q) From the items above, decide which of A and B has the lower deltaTm reading. Write the label of whichever entry you select.
A) B
(B: 1.5 K, A: 4.4 K)

###

Biological target: Tyrosine-protein kinase ABL1 (Homo sapiens, UniProt P00519);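 note: thermal shift of non-phosphorylated ABL1 protein measured by differential scanning fluorimetry with SYPRO Orange dye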
Sequence (P00519 whole entry): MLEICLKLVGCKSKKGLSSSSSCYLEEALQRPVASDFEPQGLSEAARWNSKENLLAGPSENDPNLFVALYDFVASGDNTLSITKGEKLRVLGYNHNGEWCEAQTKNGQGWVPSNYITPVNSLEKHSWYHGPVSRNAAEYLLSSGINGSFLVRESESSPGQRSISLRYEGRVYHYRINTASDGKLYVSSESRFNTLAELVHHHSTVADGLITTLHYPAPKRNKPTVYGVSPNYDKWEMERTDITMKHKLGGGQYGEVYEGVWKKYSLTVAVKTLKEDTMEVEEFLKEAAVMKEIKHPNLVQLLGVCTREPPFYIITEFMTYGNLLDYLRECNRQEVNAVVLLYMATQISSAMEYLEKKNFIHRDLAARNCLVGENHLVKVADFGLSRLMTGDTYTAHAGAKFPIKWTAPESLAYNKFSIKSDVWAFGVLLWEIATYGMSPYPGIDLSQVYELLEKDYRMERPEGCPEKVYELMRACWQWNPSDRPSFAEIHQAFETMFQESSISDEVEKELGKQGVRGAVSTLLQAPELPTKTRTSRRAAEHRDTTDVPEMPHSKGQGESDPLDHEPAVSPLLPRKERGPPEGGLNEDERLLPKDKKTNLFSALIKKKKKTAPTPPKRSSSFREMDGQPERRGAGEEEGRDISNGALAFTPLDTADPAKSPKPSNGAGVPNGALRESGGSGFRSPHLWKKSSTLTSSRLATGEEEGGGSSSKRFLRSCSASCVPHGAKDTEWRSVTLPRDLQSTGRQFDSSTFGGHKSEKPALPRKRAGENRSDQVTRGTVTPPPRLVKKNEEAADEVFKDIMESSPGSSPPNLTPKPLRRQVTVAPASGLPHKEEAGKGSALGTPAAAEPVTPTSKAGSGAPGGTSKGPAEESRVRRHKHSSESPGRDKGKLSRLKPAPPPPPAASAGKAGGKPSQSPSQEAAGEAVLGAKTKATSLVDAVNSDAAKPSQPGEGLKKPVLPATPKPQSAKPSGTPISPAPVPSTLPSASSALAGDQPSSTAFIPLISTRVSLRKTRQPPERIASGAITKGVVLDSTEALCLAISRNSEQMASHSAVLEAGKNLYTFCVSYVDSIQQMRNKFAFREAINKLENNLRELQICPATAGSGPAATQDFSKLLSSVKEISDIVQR
metric: deltaTm (K)

Q) For the molecule O=C(NCCCN1CCCC1=O)c1cnc(NCc2cc(Br)ccc2Br)nc1NC1CCCC1 , report deltaTm.
A) 6.3

Q) For the molecule O=C(NCCCN1CCCC1=O)c1cnc(NCc2cccc(Br)c2)nc1NC1CCCC1 , report deltaTm.
A) 6.9

Q) For the molecule O=C(NCCCN1CCOC1=O)c1cnc(NCc2cc(Br)ccc2Br)nc1NC1CCCC1 , report deltaTm.
A) 6

Q) For the molecule O=C(NCCCN1CCCC1=O)c1cnc(NCc2cc(Cl)ccc2Cl)nc1NC1CC1 , report deltaTm.
A) 4.9

Q) For the molecule O=C(NCCCN1CCCC1=O)c1cnc(NCc2cc(Cl)ccc2Cl)nc1NC1CCCCC1 , report deltaTm.
A) 7.7

Q) For the molecule O=C(NCCCN1CCCC1=O)c1cnc(NCc2ccc(Br)cc2)nc1NC1CCCC1 , report deltaTm.
A) 6.8

Q) For the molecule Cc1ccc(CNc2ncc(C(=O)NCCCN3CCOC3=O)c(NC3CCCCC3)n2)c(Br)c1 , report deltaTm.
A) 6.2

Q) For the molecule O=C(NCCCN1CCCC1=O)c1cnc(NCc2cc(F)ccc2F)nc1NC1CCCC1 , report deltaTm.
A) 6.1
